# System under test: human Yes1 enzyme (Homo sapiens, UniProt P07947)
# Construct: made in house
# Sequence (P07947 whole entry): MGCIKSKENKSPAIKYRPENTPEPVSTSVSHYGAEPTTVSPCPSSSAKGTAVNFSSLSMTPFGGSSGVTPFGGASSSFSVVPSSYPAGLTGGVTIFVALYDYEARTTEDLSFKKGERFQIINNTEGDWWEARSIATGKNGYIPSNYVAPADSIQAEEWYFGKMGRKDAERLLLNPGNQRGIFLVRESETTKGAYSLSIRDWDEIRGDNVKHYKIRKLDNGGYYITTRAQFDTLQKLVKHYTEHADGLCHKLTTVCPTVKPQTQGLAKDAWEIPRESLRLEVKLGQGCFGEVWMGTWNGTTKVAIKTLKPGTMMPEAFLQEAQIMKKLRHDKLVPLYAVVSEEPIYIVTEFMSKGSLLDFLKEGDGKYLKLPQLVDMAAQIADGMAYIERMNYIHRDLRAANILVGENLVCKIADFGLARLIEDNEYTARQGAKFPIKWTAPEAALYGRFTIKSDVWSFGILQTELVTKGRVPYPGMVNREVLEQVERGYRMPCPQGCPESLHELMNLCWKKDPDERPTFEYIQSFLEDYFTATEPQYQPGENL
# Protocol details: Yes1 enzyme inhibitory activity (time-resolved fluorometry, biotinylated peptide phosphorylation)
# Format: biochemical
# Test parameters: biotinylated peptide phosphorylation, read-out: YES_IC50
pIC50: −log10 of the molar value.
Value type: pIC50

Observe how each entry below is paired with its result.
Compound	pIC50
Cc1cc2cc(C(=O)c3cnn(-c4ccc(Oc5ccccc5F)cc4C)c3N)[nH]c2cc1N1C(=O)NC(C)(C(F)(F)F)C1=O (stereo not shown)	8.70
COCCNS(=O)(=O)Nc1cc2[nH]c(C(=O)c3cnn(-c4ccc(Oc5ccccc5F)cc4C)c3N)cc2cc1F	9.30
Cc1cc2cc(C(=O)c3cnn(-c4ccc(Oc5ccccc5F)cc4C)c3N)[nH]c2cc1NS(=O)(=O)c1cncc(Cl)c1	8.46
Cc1cc(Oc2ccccc2F)ccc1-n1ncc(C(=O)c2cc3cc(F)c(N4C(=O)[C@@H]5CCCN5C4=O)cc3[nH]2)c1N	8.92
Cc1cc(Oc2cccc(Cl)c2)ncc1-n1ncc(C(=O)c2cc3cc(Cl)c(NS(C)(=O)=O)cc3[nH]2)c1N	8.01
Cc1cc(Oc2ccccc2F)ncc1-n1ncc(C(=O)c2cc3cc(OC(F)F)c(NC4COC4)cc3[nH]2)c1N	8.80

1. Cc1cc2cc(C(=O)c3cnn(-c4c(C)cc(Oc5ccccc5Cl)cc4F)c3N)[nH]c2cc1NS(C)(=O)=O
2. Cc1cc(Oc2c(F)cccc2F)ncc1-n1ncc(C(=O)c2cc3cc(OCC(F)F)c(N4CCCS4(=O)=O)cc3[nH]2)c1N
Input: I'd appreciate it if you could identify which of 1 and 2 has the greater pIC50. Answer by stating the label of the chosen item.
Output: 2

A. Cc1cc(Oc2ccccc2F)ccc1-n1ncc(C(=O)c2cc3cc(OC(F)F)c(N4CCCS4(=O)=O)cc3[nH]2)c1N
B. Cc1cc(Oc2ccccc2F)ccc1-n1ncc(C(=O)c2cc3cc(OCC(F)F)c(NS(=O)(=O)c4cc(F)cc(F)c4)cc3[nH]2)c1N
Input: I'd appreciate it if you could identify which of A and B has the greater pIC50. Answer by stating the label of the chosen item.
Output: A

1. Cc1cc(Oc2ccccc2F)ncc1-n1ncc(C(=O)c2cc3cc(F)c(N4CC5(CCOCC5)NS4(=O)=O)cc3[nH]2)c1N
2. Cc1cc(Oc2ccccc2F)ccc1-n1ncc(C(=O)c2cc3cc(F)c(NS(=O)(=O)c4cccc(F)c4)cc3[nH]2)c1N
Input: I'd appreciate it if you could identify which of 1 and 2 has the greater pIC50. Answer by stating the label of the chosen item.
Output: 1
(1: 8.82, 2: 8.27)

Where these numbers come from: patent US10479780B2
